experiment notes: In vivo efficacy, biodistribution and tolerability of 225Ac-DPI-4452 in HT-29 xenograft mouse model
Design: species or system NMRI nude mice
settings: female, NMRI nude, mouse, colon, small intestine and stomach, iv, total radioactivity; HT-29 model, 15 kBq, 4 hours after dosing

molecule	tissue uptake at 4 h
CC(C)C[C@@H]1NC(=O)[C@H](Cc2cccc(NC(=O)CCCS(N)(=O)=O)c2)NC(=O)[C@H](CC(=O)O)NC(=O)[C@H]2CCCN2C(=O)[C@H](CCC(=O)O)NC(=O)[C@@H](NC(=O)[C@H](CCC(N)=O)NC(=O)CN2CCN(C(=O)CN3CCN(CC(=O)O)CCN(CC(=O)O)CCN(CC(=O)O)CC3)CC2)CSCc2cccc(c2)CSC[C@@H](C(N)=O)NC(=O)[C@H](CO)NC(=O)[C@H](Cc2c[nH]c3ccccc23)NC(=O)[C@H]([C@@H](C)O)NC1=O [^225Ac-DPI-4452, metal not drawn]	< 1.1 %ID/g

---

experiment notes: Dose range finding study by intravenous route with toxicokinetics
Type: in vivo, beagle dogs
settings: male, beagle, iv; Day 1; 0.025 mg/kg i.v.; dog plasma; mean n = 2

smiles notation	AUC(0-t) (ng·h/mL)
CC(C)C[C@@H]1NC(=O)[C@H](Cc2cccc(NC(=O)CCCS(N)(=O)=O)c2)NC(=O)[C@H](CC(=O)O)NC(=O)[C@H]2CCCN2C(=O)[C@H](CCC(=O)O)NC(=O)[C@@H](NC(=O)[C@H](CCC(N)=O)NC(=O)CN2CCN(C(=O)CN3CCN(CC(=O)O)CCN(CC(=O)O)CCN(CC(=O)O)CC3)CC2)CSCc2cccc(c2)CSC[C@@H](C(N)=O)NC(=O)[C@H](CO)NC(=O)[C@H](Cc2c[nH]c3ccccc23)NC(=O)[C@H]([C@@H](C)O)NC1=O	34

---

experiment notes: Extended single-dose toxicity study including safety pharmacology endpoints, i.v. bolus (GLP)
Format: in vivo, beagle dogs
settings: beagle, dog, plasma, iv, 400 ug/kg; Male; 400 μg/kg single i.v. bolus; mean n = 3

compound	clearance (mL/min/kg)
CC(C)C[C@@H]1NC(=O)[C@H](Cc2cccc(NC(=O)CCCS(N)(=O)=O)c2)NC(=O)[C@H](CC(=O)O)NC(=O)[C@H]2CCCN2C(=O)[C@H](CCC(=O)O)NC(=O)[C@@H](NC(=O)[C@H](CCC(N)=O)NC(=O)CN2CCN(C(=O)CN3CCN(CC(=O)O)CCN(CC(=O)O)CCN(CC(=O)O)CC3)CC2)CSCc2cccc(c2)CSC[C@@H](C(N)=O)NC(=O)[C@H](CO)NC(=O)[C@H](Cc2c[nH]c3ccccc23)NC(=O)[C@H]([C@@H](C)O)NC1=O [DPI-4452]	7.88

---

experiment notes: Dose range finding study by intravenous route with toxicokinetics
Assay type: in vivo, beagle dogs
settings: male, beagle, dog, plasma, iv; Day 1; 0.025 mg/kg i.v.; mean n = 2
Procedure: The following parameters and endpoints were evaluated: mortality, clinical observations, body weights, food consumption, local reactions, clinical pathology parameters (hematology, coagulation, and clinical chemistry), organ weights, and macroscopic examinations. Both animals were sampled for toxicokinetics (TK) on each dosing occasion (i.e., on day 1, day 5, day 9 and day 13) at: pre-dose, 15 min, 30 min, 1 h, 6 h and 24 h. Blood samples were collected in K2EDTA tubes. […]
parameter measured: half-life (min)

compound	parameter measured	value
CC(C)C[C@@H]1NC(=O)[C@H](Cc2cccc(NC(=O)CCCS(N)(=O)=O)c2)NC(=O)[C@H](CC(=O)O)NC(=O)[C@H]2CCCN2C(=O)[C@H](CCC(=O)O)NC(=O)[C@@H](NC(=O)[C@H](CCC(N)=O)NC(=O)CN2CCN(C(=O)CN3CCN(CC(=O)O)CCN(CC(=O)O)CCN(CC(=O)O)CC3)CC2)CSCc2cccc(c2)CSC[C@@H](C(N)=O)NC(=O)[C@H](CO)NC(=O)[C@H](Cc2c[nH]c3ccccc23)NC(=O)[C@H]([C@@H](C)O)NC1=O [DPI-4452]	half-life	15

---

experiment notes: Pharmacokinetic characterization in healthy dogs
Assay type: in vivo, beagle dogs
settings: male, beagle, plasma, iv; dog, i.v. 0.8 mg/kg; read-out: volume of distribution
parameter measured: Vd

smiles notation	value
CC(C)C[C@@H]1NC(=O)[C@H](Cc2cccc(NC(=O)CCCS(N)(=O)=O)c2)NC(=O)[C@H](CC(=O)O)NC(=O)[C@H]2CCCN2C(=O)[C@H](CCC(=O)O)NC(=O)[C@@H](NC(=O)[C@H](CCC(N)=O)NC(=O)CN2CCN(C(=O)CN3CCN(CC(=O)O)CCN(CC(=O)O)CCN(CC(=O)O)CC3)CC2)CSCc2cccc(c2)CSC[C@@H](C(N)=O)NC(=O)[C@H](CO)NC(=O)[C@H](Cc2c[nH]c3ccccc23)NC(=O)[C@H]([C@@H](C)O)NC1=O	0.19 L/kg

---

system name: CAIX-expressing human HT-29 colorectal cancer cells (Homo sapiens, UniProt Q16790)
Construct: CAIX-expressing human HT-29 colorectal cancer cells; host or cells: HT-29 human colorectal cancer cells
experiment notes: FACS binding assay (IC50 determination, competition with tracer 3BP-2776 or 3BP-4149)
settings: FACS binding assay, HT-29 cells, competition with tracer 3BP-2776 (10 nM, biotin-labeled), 4° C., 1 hour; read-out: pIC50 category (activity) (converted)
Starred links: 1 amine or outer side, 2 acyl side, 3 side chain; linkers in the order of their positions; H or OH if unused. Positions of bridges follow the written chain, without caps; N, C: chain ends. Non-standard residues stand in square brackets, D forms with d. Residues, ends and D or L forms follow the SMILES beside them. *: point of attachment. DOTA = O=C(O)CN1CCN(CC(=O)O)CCN(CC(=O)*)CCN(CC(=O)O)CC1; mXylylene = c1cc(C[*:1])cc(C[*:2])c1; X2 = O=C(CN1CCC(N[*:1])CC1)[*:2]; hSer = N[C@@H](CCO)C(=O)O; Ac6c = NC1(C(=O)O)CCCCC1
parameter measured: IC50

compound	value
CC(=O)N[C@H](C(=O)N[C@@H](Cc1ccc(O)cc1)C(=O)N[C@H]1CSCc2cccc(c2)CSC[C@@H](C(N)=O)NC(=O)[C@H](CO)NC(=O)[C@H](Cc2c[nH]c3ccccc23)NC(=O)[C@@H]2CCC(=O)NCCCC[C@H](NC(=O)[C@H]3CCCN3C(=O)[C@H](CCC(=O)O)NC1=O)C(=O)N[C@@H](Cc1c[nH]c3ccccc13)C(=O)NC1(CCCCC1)C(=O)N2)C(C)C [3BP-3961] (Ac-VYCE[dP]KW[Ac6c]EWSC-NH2; linker 3-12 via mXylylene; lactam 6-9)	10 to 79.4 nM
CC(C)C[C@@H]1NC(=O)[C@H](Cc2c[nH]c3ccccc23)NC(=O)[C@H](CC(=O)O)NC(=O)[C@H]2CCCN2C(=O)[C@H](CCO)NC(=O)[C@@H](NC(=O)[C@H](Cc2ccc(O)cc2)NC(=O)[C@@H](NC(=O)CN2CCC(NC(=O)CN3CCN(CC(=O)O)CCN(CC(=O)O)CCN(CC(=O)O)CC3)CC2)C(C)C)CSCc2cccc(c2)CSC[C@@H](C(N)=O)NC(=O)[C@H](CO)NC(=O)[C@H](Cc2c[nH]c3ccccc23)NC(=O)[C@H]([C@@H](C)O)NC1=O [3BP-4101] ({DOTA}-[X2]VYC[hSer][dP]DWLTWSC-NH2; linker 4-13 via mXylylene)	< 10 nM

---

experiment notes: Plasma stability assay, mouse plasma
settings: mouse, plasma (K2EDTA)
Starred links: 1 amine or outer side, 2 acyl side, 3 side chain; linkers in the order of their positions; H or OH if unused. Positions of bridges follow the written chain, without caps; N, C: chain ends. Non-standard residues stand in square brackets, D forms with d. Residues, ends and D or L forms follow the SMILES beside them. *: point of attachment. DOTA = O=C(O)CN1CCN(CC(=O)O)CCN(CC(=O)*)CCN(CC(=O)O)CC1; mXylylene = c1cc(C[*:1])cc(C[*:2])c1; tBuAla = CC(C)(C)C[C@H](N)C(=O)O; Ac6c = NC1(C(=O)O)CCCCC1; Nlys = NCCCCNCC(=O)O
parameter measured: remaining at 4 h, […] (%)

compound	parameter measured	result comparator	value
CC(=O)N[C@H](C(=O)N[C@@H](Cc1ccc(O)cc1)C(=O)N[C@H]1CSCc2cccc(c2)CSC[C@@H](C(N)=O)NC(=O)[C@H](C)NC(=O)[C@H](Cc2c[nH]c3ccccc23)NC(=O)[C@H]([C@@H](C)O)NC(=O)[C@H](CC(C)C)NC(=O)[C@H](Cc2c[nH]c3ccccc23)NC(=O)[C@H](CC(=O)O)NC(=O)CN(CCCCNC(=O)CN2CCN(CC(=O)O)CCN(CC(=O)O)CCN(CC(=O)O)CC2)C(=O)[C@H](CCC(=O)O)NC1=O)C(C)C [3BP-3562] (Ac-VYCE[Nlys](DOTA)DWLTWAC-NH2; linker 3-12 via mXylylene)	remaining at 4 h, […]	=	89
CC(=O)N[C@H](C(=O)N[C@@H](Cc1ccc(O)cc1)C(=O)N[C@H]1CSCc2cccc(c2)CSC[C@@H](C(N)=O)NC(=O)[C@H](CO)NC(=O)[C@H](Cc2c[nH]c3ccccc23)NC(=O)[C@H]([C@@H](C)O)NC(=O)[C@H](CC(C)(C)C)NC(=O)[C@H](Cc2c[nH]c3ccccc23)NC(=O)[C@H](CC(=O)O)NC(=O)[C@H]2CCCN2C(=O)[C@H](CCC(=O)O)NC1=O)C(C)C [3BP-3491] (Ac-VYCE[dP]DW[tBuAla]TWSC-NH2; linker 3-12 via mXylylene)	remaining at 4 h, […]	>	95
CC(=O)N[C@H](C(=O)N[C@@H](Cc1ccc(O)cc1)C(=O)N[C@H]1CSCc2cccc(c2)CSC[C@@H](C(N)=O)NC(=O)[C@H](CCC(N)=O)NC(=O)[C@H](Cc2c[nH]c3ccccc23)NC(=O)[C@H]([C@@H](C)O)NC(=O)[C@H](CC(C)C)NC(=O)[C@H](Cc2c[nH]c3ccccc23)NC(=O)[C@H](CC(=O)O)NC(=O)CNC(=O)[C@H](CCC(=O)O)NC1=O)C(C)C [3BP-2837] (Ac-VYCEGDWLTWQC-NH2; linker 3-12 via mXylylene)	remaining at 4 h, […]	>	95
CC(=O)N[C@H](C(=O)N[C@@H](Cc1ccc(O)cc1)C(=O)N[C@H]1CSCc2cccc(c2)CSC[C@@H](C(N)=O)NC(=O)[C@H](C)NC(=O)[C@H](Cc2c[nH]c3ccccc23)NC(=O)[C@H]([C@@H](C)O)NC(=O)C2(CCCCC2)NC(=O)[C@H](Cc2c[nH]c3ccccc23)NC(=O)[C@H](CC(=O)O)NC(=O)[C@H]2CCCN2C(=O)[C@H](CCC(=O)O)NC1=O)C(C)C [3BP-3503] (Ac-VYCE[dP]DW[Ac6c]TWAC-NH2; linker 3-12 via mXylylene)	remaining at 4 h, […]	>	95
CC(=O)N[C@H](C(=O)N[C@@H](Cc1ccc(O)cc1)C(=O)N[C@H]1CSCc2cccc(c2)CSC[C@@H](C(N)=O)NC(=O)[C@H](C)NC(=O)[C@H](Cc2c[nH]c3ccccc23)NC(=O)[C@H]([C@@H](C)O)NC(=O)[C@H](CC(C)C)NC(=O)[C@H](Cc2c[nH]c3ccccc23)NC(=O)[C@H](CC(=O)O)NC(=O)CNC(=O)[C@H](CCC(=O)O)NC1=O)C(C)C [3BP-3058] (Ac-VYCEGDWLTWAC-NH2; linker 3-12 via mXylylene)	remaining at 4 h, […]	=	95
